- System: HMVEC
- Test Details: Antiangiogenic activity in FGF1-stimulated HMVEC cells after 72 hrs by CellTiter assay
- Type: functional, cell-based
- Condition Set: Homo sapiens
Calls of active or inactive are those of the source. No cut-off for these calls is given here.

Smiles Input	Activity
CC(C)CCC[C@@H](C)[C@H]1CC[C@H]2[C@@H]3CC[C@H]4C[C@@H](OCc5cn([C@@H]6O[C@H](COS(=O)(=O)[O-])[C@@H](O[C@H]7O[C@H](COS(=O)(=O)[O-])[C@@H](OS(=O)(=O)[O-])[C@H](OS(=O)(=O)[O-])[C@H]7OS(=O)(=O)[O-])[C@H](OS(=O)(=O)[O-])[C@H]6OS(=O)(=O)[O-])nn5)CC[C@]4(C)[C@H]3CC[C@]12C.[Na+].[Na+].[Na+].[Na+].[Na+].[Na+].[Na+]	Active
CCCCCCCCCCCCCCCCCC(=O)NCCCO[C@@H]1O[C@H](COS(=O)(=O)[O-])[C@@H](O[C@H]2O[C@H](COS(=O)(=O)[O-])[C@@H](O[C@H]3O[C@H](COS(=O)(=O)[O-])[C@@H](OS(=O)(=O)[O-])[C@H](OS(=O)(=O)[O-])[C@H]3OS(=O)(=O)[O-])[C@H](OS(=O)(=O)[O-])[C@H]2OS(=O)(=O)[O-])[C@H](OS(=O)(=O)[O-])[C@H]1OS(=O)(=O)[O-].[Na+].[Na+].[Na+].[Na+].[Na+].[Na+].[Na+].[Na+].[Na+].[Na+]	Active
